Target: Syk kinase (Homo sapiens)
Construct: purchased
Assay: Syk kinase inhibition, Caliper LabChip off-chip mobility-shift kinase assay
Assay type: biochemical
Settings: read-out: Syk Enzyme IC50
Parameter: IC50. Scope: all listed entries.

mol	unit of measure	IC50
Cc1ccnc(Nc2cc3cc[nH]c(=O)c3c(N[C@H]3CCOC3)n2)c1	nM	83
Cc1ccnc(Nc2cc3ccn(CCO)c(=O)c3c(NC(C)(C)C)n2)c1	nM	102
Cn1ccc2cc(Nc3cnccn3)nc(Nc3ccc(S(C)(=O)=O)cc3)c2c1=O	nM	584
CC(C)CNc1nc(-c2cnc(N)nc2)cc2cc[nH]c(=O)c12	nM	178

====

Target: Syk kinase (Homo sapiens, UniProt P43405)
Construct: purchased
Experiment: Syk kinase inhibition, Caliper LabChip off-chip mobility-shift kinase assay
Type: biochemical
Settings: read-out: Syk Enzyme IC50
assay metric: IC50 (nM)

mol	assay metric	measured
COCCN1CCC(c2ccc(Nc3nc(-c4cnc(C)nc4)cc4cc[nH]c(=O)c34)cc2C)CC1	IC50	14
COCCN1CCC(c2ccc(Nc3nc(-c4ccc(C)nc4)cc4cc[nH]c(=O)c34)cc2C)CC1	IC50	12
O=c1[nH]ccc2cc(-c3cncnc3)nc(Nc3ccc(C4CNC4)cc3)c12	IC50	109
CC1(Nc2nc(Nc3cnccn3)cc3ccn(CCO)c(=O)c23)CCC1	IC50	11.4
Cn1ccc2cc(-c3cnc(N)nc3)nc(NC3CC3)c2c1=O	IC50	62
O=c1[nH]ccc2cc(Nc3ccccn3)nc(NC3CC3)c12	IC50	199
COc1cncc(-c2cc3cc[nH]c(=O)c3c(Nc3ccc(CCN4CCNC(=O)C4)cc3)n2)n1	IC50	55
CCn1ccc2cc(Nc3cnccn3)nc(N[C@H]3CC[C@@H](O)C3)c2c1=O	IC50	316
Cn1ccc2cc(Nc3ccc(C#N)cn3)nc(N)c2c1=O	IC50	3870
O=c1[nH]ccc2cc(Nc3ccc(CCN4CCOCC4)cn3)nc(Nc3ccc(N4CCOCC4)cc3)c12	IC50	549
O=c1[nH]ccc2cc(Nc3cc(Cl)ccn3)nc(NC3CC3)c12	IC50	122
CNS(=O)(=O)c1ccc(Nc2nc(Nc3cc(C)ccn3)cc3ccn(C)c(=O)c23)cc1	IC50	414

====

Parameter: IC50. Scope: all listed entries.
Biological target: Syk kinase (Homo sapiens, UniProt P43405)
Construct: purchased
Assay: Syk kinase inhibition, Caliper LabChip off-chip mobility-shift kinase assay
Assay type: biochemical
Details: Caliper LabChip assay; read-out: Syk Enzyme IC50

compound	IC50
COc1ncc(-c2cc(Nc3cc4ccn(CCO)c(=O)c4c(NC(C)(C)C)n3)ncn2)cn1 [compound 637]	60 nM
CC(C)(C)Nc1nc(Nc2cc(C(C)(C)O)ncn2)cc2ccn(CCO)c(=O)c12 [compound 716]	35 nM
CC(=O)c1cc(Nc2cc3ccn(CCO)c(=O)c3c(NC(C)(C)C)n2)ncn1 [compound 633]	273 nM
CCn1ccc2cc(Nc3cnccn3)nc(N[C@H](C)CO)c2c1=O [compound 963]	147 nM
CC(C)(Cc1ccc(F)cc1)Nc1nc(-c2cnc(N)nc2)cc2ccn(CCO)c(=O)c12 [compound 925]	145 nM

====

Parameter: IC50. Scope: all listed entries.
Biological target: Syk kinase (Homo sapiens)
Construct: purchased
Experiment: Syk kinase inhibition, Caliper LabChip off-chip mobility-shift kinase assay
Type: biochemical
Conditions: Caliper LabChip assay; read-out: Syk Enzyme IC50

compound	relation sign	IC50 / nM
CC(C)(C)Nc1nc(Nc2cc(CNCCO)ccn2)cc2ccn(CCO)c(=O)c12	<	5.65
[2H]C([2H])([2H])n1ccc2cc(Nc3cnccn3)nc(N[C@@H](C)CO)c2c1=O	=	45.7
CC(C)(C)Nc1nc(Nc2cnccn2)cc2ccn(Cc3ccncc3)c(=O)c12	=	301
CC(C)(C)Nc1nc(-c2cnc(N)nc2)cc2ccn(C(CO)CO)c(=O)c12	=	6
CCn1ccc2cc(Nc3cnccn3)nc(NC(C)(C)CCO)c2c1=O	=	179
CCn1ccc2cc(Nc3cc(C)ccn3)nc(N[C@@H]3CC[C@H](CO)C3)c2c1=O (stereo in doubt) [compound 789]	=	72
Cc1ccnc(Nc2cc3ccn(C(C)C)c(=O)c3c(N[C@@H](C)CO)n2)c1	=	29
CCn1ccc2cc(Nc3cc(C)ccn3)nc(N[C@H]3CC[C@H](O)C3)c2c1=O	=	23
CC(C)(C)Nc1nc(Nc2cc(-c3ccn[nH]3)ccn2)cc2ccn(CCO)c(=O)c12	=	67
CC1(Nc2nc(-c3cnc(N)nc3)cc3ccn(CCO)c(=O)c23)CC1	=	20
CC1(Cn2ccc3cc(-c4cnc(N)nc4)nc(NC4COC4)c3c2=O)COC1	=	67
CC(C)(C)Nc1nc(Nc2cc(C(C)(C)O)c(F)cn2)cc2ccn(CC(N)=O)c(=O)c12	=	94
CC(C)(C)Nc1nc(Nc2cc(OCC3CCCO3)ncn2)cc2ccn(CC(O)CO)c(=O)c12 (centres unmarked)	=	60
CC(C)(C)Nc1nc(Nc2cc(N3CCC(=O)CC3)ncn2)cc2ccn(CCO)c(=O)c12	=	117
